Measured pest or weed control at 100 ppm of individual entries
Tested on: Helminthosporium maydis
ASSAY_DETAILS: southern corn leaf blight control on corn seedlings
Type: in vivo
ASSAY_CONTEXT: Bipolaris maydis, 168 h
A number alone suffices; assume %.

The following compounds have reported results that may help.
C[Si](C)(Cn1ccnc1)c1ccc(Cl)cc1 | 0
C[Si](C)(Cn1ccnc1)c1ccc(-c2ccc(Br)cc2)cc1 | 0
C[Si](C)(Cn1ccnc1)c1ccc(Oc2ccc(Cl)cc2)cc1 | 0
C[Si](C)(Cn1ccnc1)c1cccc2ccccc12 | 0

stdin: What measured pest or weed control at 100 ppm goes with C[Si](C)(Cn1ccnc1)C1CCCCC1 ?
stdout: 50

----------
Tested on: 5 Phytophthora species
Type: cell-based
ASSAY_CONTEXT: 200.0 ppm in agar, 22° C., 6 days; controlled = radial growth 1 mm or less
MEASURED_ATTRIBUTE: No. of 5 Phytophthora species controlled in vitro
Give the figure only, with no unit attached.

The following compounds have reported results that may help.
C[Si](Cn1ccnc1)(c1ccccc1)c1ccc(Cl)cc1 (centres unmarked) | 0
C[Si](C)(Cn1ccnc1)c1ccc(Oc2ccccc2)cc1 | 4
C[Si](Cn1ccnc1)(c1ccccc1)c1ccc(F)cc1 (centres unmarked) | 2

stdin: 5 Phytophthora species / No. of 5 Phytophthora species controlled in vitro / C[Si](Cn1ccnc1)(c1ccc(F)cc1)c1ccc(F)cc1 : value?
stdout: 0

stdin: 5 Phytophthora species / No. of 5 Phytophthora species controlled in vitro / C[Si](C)(Cn1ccnc1)c1ccc(Oc2ccc(Cl)cc2)cc1 : value?
stdout: 0

stdin: 5 Phytophthora species / No. of 5 Phytophthora species controlled in vitro / C[Si](C)(Cn1ccnc1)c1ccc(Cl)cc1Cl : value?
stdout: 5

stdin: 5 Phytophthora species / No. of 5 Phytophthora species controlled in vitro / COc1ccc([Si](C)(C)Cn2ccnc2)cc1 : value?
stdout: 0

stdin: 5 Phytophthora species / No. of 5 Phytophthora species controlled in vitro / C[Si](C)(Cn1ccnc1)c1ccc(-c2ccccc2)cc1 : value?
stdout: 3

----------
Test system: Helminthosporium maydis
ASSAY_DETAILS: southern corn leaf blight control on corn seedlings
Format: in vivo
ASSAY_CONTEXT: Bipolaris maydis, 168 h
MEASURED_ATTRIBUTE: pest or weed control at 100 ppm (%)
A number alone suffices; assume %.

C[Si](C)(Cn1ccnc1)c1ccc(Cl)cc1Cl | 70
C[Si](Cn1ccnc1)(c1ccc(Br)cc1)c1ccc(Br)cc1 | 0
CCCCCCCCCCCC[Si](C)(C)Cn1ccnc1 | 0

stdin: What measured pest or weed control at 100 ppm goes with C[Si](Cn1ccnc1)(c1ccc(F)cc1)c1ccc(-c2ccccc2)cc1 (stereo not drawn) ?
stdout: 70

stdin: What measured pest or weed control at 100 ppm goes with C[Si](Cn1ccnc1)(c1ccccc1)c1ccc(Cl)cc1 (stereo not drawn) ?
stdout: 0

stdin: What measured pest or weed control at 100 ppm goes with CC(C)O[Si](Cn1ccnc1)(OC(C)C)c1ccccc1 ?
stdout: 0

stdin: What measured pest or weed control at 100 ppm goes with CCCC[Si](C)(Cn1ccnc1)c1ccc(F)cc1 (stereo not drawn) ?
stdout: 0

stdin: What measured pest or weed control at 100 ppm goes with C[Si](C)(Cn1ccnc1)c1ccc(F)cc1 ?
stdout: 0

stdin: What measured pest or weed control at 100 ppm goes with C[Si](Cn1ccnc1)(c1ccccc1)c1ccc(Br)cc1 (stereo not drawn) ?
stdout: 0

stdin: What measured pest or weed control at 100 ppm goes with C[Si](C)(Cn1ccnc1)c1ccccc1Cl ?
stdout: 0

stdin: What measured pest or weed control at 100 ppm goes with C[Si](C)(Cn1ccnc1)c1ccc(-c2ccccc2)cc1 ?
stdout: 90

stdin: What measured pest or weed control at 100 ppm goes with O[Si](Cn1ccnc1)(c1ccc(Cl)cc1)c1ccc(Cl)cc1 ?
stdout: 0
